Experimental system: RelA enzyme (Escherichia coli)
Sequence (P0AG20 whole entry): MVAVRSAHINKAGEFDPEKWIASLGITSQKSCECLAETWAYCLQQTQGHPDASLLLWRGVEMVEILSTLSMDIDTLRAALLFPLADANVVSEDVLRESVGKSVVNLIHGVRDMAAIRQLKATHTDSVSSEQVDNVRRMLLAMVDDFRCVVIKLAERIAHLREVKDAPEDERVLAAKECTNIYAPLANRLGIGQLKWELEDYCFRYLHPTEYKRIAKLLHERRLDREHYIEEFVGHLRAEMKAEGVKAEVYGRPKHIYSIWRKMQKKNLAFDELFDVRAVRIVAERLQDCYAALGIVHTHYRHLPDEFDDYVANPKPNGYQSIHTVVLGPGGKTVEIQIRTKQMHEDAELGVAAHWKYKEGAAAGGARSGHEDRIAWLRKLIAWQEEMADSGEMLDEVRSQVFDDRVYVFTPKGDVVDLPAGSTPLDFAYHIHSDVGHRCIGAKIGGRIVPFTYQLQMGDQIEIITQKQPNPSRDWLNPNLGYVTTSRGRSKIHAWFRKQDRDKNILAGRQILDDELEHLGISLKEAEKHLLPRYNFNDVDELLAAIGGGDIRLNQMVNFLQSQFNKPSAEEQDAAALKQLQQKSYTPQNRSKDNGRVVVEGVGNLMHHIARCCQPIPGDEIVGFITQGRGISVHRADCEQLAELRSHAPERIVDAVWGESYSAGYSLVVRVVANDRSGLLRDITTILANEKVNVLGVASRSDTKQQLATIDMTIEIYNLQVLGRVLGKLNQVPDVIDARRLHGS
Procedure summary: Semi-HTS and IC50, in vitro RelA ppGpp production assay ([α-32P]GTP)
Details: concentration gradient, in vitro radio isotope assay
pIC50: −log10 of the molar value.
Property name: pIC50

[[record]]
compound = "O=C(O)Cn1cc(C[C@H]2NC(=O)NC2=O)nn1 [Compound C14]"
recorded_measurement = 4.27

[[record]]
compound = "O=C(O)CCNC(=O)c1cccc(-n2cc(Br)cn2)c1 [Compound C22]"
recorded_measurement = 4.03

